Metric: IC50
Record the result as number plus unit.

Could you share what IC50 was measured for Cc1nnc(-c2ccc(C)c(-c3ccc4c(c3)NC(=O)C43CCOCC3)c2)[nH]1 , tested on Mitogen-activated protein kinase 14 (Homo sapiens, UniProt Q16539)? 7.6 nM

Could you share what IC50 was measured for Cc1ncc(-c2ccc(C)c(-c3ccc4c(c3)NC(=O)C43CCOCC3)c2)[nH]1 , tested on Mitogen-activated protein kinase 14 (Homo sapiens, UniProt Q16539)? 880 nM

Could you share what IC50 was measured for Cc1ccc2c(N)noc2c1-c1ccc2c(c1)NC(=O)C21CCC(F)(F)CC1 , tested on Mitogen-activated protein kinase 14 (Homo sapiens, UniProt Q16539)? 1.2 nM

Could you share what IC50 was measured for O=C1Nc2cc(-c3cccc4c(NC5CC5)noc34)ccc2C12CCCC2 , tested on Mitogen-activated protein kinase 14 (Homo sapiens, UniProt Q16539)? 38 nM

Could you share what IC50 was measured for Cc1ccc2c(N)noc2c1-c1ccc2c(c1)NC(=O)C21CCOCC1 , tested on Mitogen-activated protein kinase 14 (Homo sapiens, UniProt Q16539)? 5 nM

Could you share what IC50 was measured for Cc1ccn2c(N)nnc2c1-c1ccc2c(c1)NC(=O)C21CCCC1 , tested on Mitogen-activated protein kinase 14 (Homo sapiens, UniProt Q16539)? 34 nM

Could you share what IC50 was measured for Cc1ccc(-c2nnc(C3CC3)[nH]2)cc1-c1ccc2c(c1)NC(=O)C21CCCC1 , tested on Mitogen-activated protein kinase 14 (Homo sapiens, UniProt Q16539)? 135 nM

Could you share what IC50 was measured for Cc1ccc2c(NC3CC3)noc2c1-c1ccc2c(c1)NC(=O)C21CCOCC1 , tested on Mitogen-activated protein kinase 14 (Homo sapiens, UniProt Q16539)? 0.16 nM

Could you share what IC50 was measured for Cc1noc(-c2ccc(C)c(-c3ccc4c(c3)NC(=O)C43CCCC3)c2)n1 , tested on Mitogen-activated protein kinase 14 (Homo sapiens, UniProt Q16539)? 741 nM

Could you share what IC50 was measured for Cc1nc(-c2ccc(C)c(-c3ccc4c(c3)NC(=O)C43CCCC3)c2)no1 , tested on Mitogen-activated protein kinase 14 (Homo sapiens, UniProt Q16539)? 583 nM

Could you share what IC50 was measured for Cc1nnc(-c2ccc(C)c(-c3ccc4c(c3)NC(=O)C43CCCC3)c2)[nH]1 , tested on Mitogen-activated protein kinase 14 (Homo sapiens, UniProt Q16539)? 7.4 nM

Could you share what IC50 was measured for Cc1nnc(-c2ccc(C)c(-c3ccc4c(c3)NC(=O)C4(C)C)c2)[nH]1 , tested on Mitogen-activated protein kinase 14 (Homo sapiens, UniProt Q16539)? 87 nM

Could you share what IC50 was measured for Cc1cnc(-c2ccc(C)c(-c3ccc4c(c3)NC(=O)C43CCOCC3)c2)[nH]1 , tested on Mitogen-activated protein kinase 14 (Homo sapiens, UniProt Q16539)? 173 nM
